Reference source for all entries: ChEMBL document CHEMBL1201862

System: MOLT-4
ASSAY_PROCEDURE: NCI tumour cell line growth inhibition, 48 h
Active and inactive are the calls of the source. Rule as the data show it: active = GI50 up to about 1.1 µM and inactive = higher.
# output must be one of label 1 (active), label 0 (inactive)

Please indicate how the test categorized CCOC(=O)[C@@]1(C)CC(O)C(=O)N1C (stereo partly specified) . label 0

====

Tested on: OVCAR-8
ASSAY_PROCEDURE: NCI tumour cell line growth inhibition, 48 h
Calls of active or inactive are those of the source. Cut-off read from the data, not from the text of the source: active = GI50 up to about 1.1 µM and inactive = higher.
MEASURED_PARAMETER: GI50

Here are 2 molecules together with their reported answers.
C[Si](C)(OCCS(=O)(=O)O)OC(=C1S(=O)(=O)OCCOS1(=O)=O)c1cccc2ccccc12
> 100 µM (inactive)
O=C(CCC(NC(=O)OCc1ccccc1)C(=O)OCc1ccccc1)Nc1ccc(OCc2ccccc2)cc1 (stereo unspecified)
14.1 µM (inactive)

Looking up CN1CN(c2ccccc2)C2(CCN(C(=O)OC(C)(C)C)CC2)C1=O , I found its GI50 recorded as > 100 µM (inactive)

Briefly, GI50 measured for Cc1c(C)n(COCCO)c2ncnc(N)c12 : > 100 µM (inactive)

Entry under test: C=C1CCC2[C@@H](CCC3[C@]2(C)CCC[C@]3(C)C(=O)OC)C1CC=O (stereo partly specified) . Its GI50 was 19.4 µM (inactive)

The molecule COc1ccc(C(=O)C#Cc2cn(C3CC(O)C(CO)O3)c(=O)[nH]c2=O)cc1 (stereo unspecified) showed GI50 equal to > 100 µM (inactive)

Consider CC1=C(Br)C(=O)C(C)=C(Br)C1=O.Cc1c(O)c(Br)c(C)c(O)c1Br . Its measured GI50 is 1.93 µM (inactive)

GET /value?item= Clc1ccc(Nc2nc3ccccc3nc2-c2cccs2)cc1Cl &field=GI50 returns 19.7 µM (inactive)

The recorded GI50 for entry c1ccc(N2N=C3N(c4ccccc4)C2N3c2ccccc2)cc1 equals 35.9 µM (inactive)

Reported GI50 for O=C1c2cc([N+](=O)[O-])cnc2S(=O)(=O)N1c1ccc(Oc2ccccc2)cc1 was > 100 µM (inactive)

In plain terms, C[C@]12Cc3conc3C(O)=C1CC[C@@H]1C2CC[C@@]2(C)C1CC[C@]2(C)O (stereo partly specified) has a documented GI50 of 23.4 µM (inactive)

====

Tested on: SW-620
ASSAY_PROCEDURE: NCI tumour cell line growth inhibition, 48 h
The source made the active and inactive calls. Rule as the data show it: active = GI50 up to about 1.1 µM and inactive = higher.
Select the matching outcome among active, inactive

Some solved cases for reference:
CC1(C)CN=C(Nc2cccc(C(F)(F)F)c2)S1
inactive
CCOC(=O)C1(CC)CCCCC(=O)N1 (stereo not drawn)
inactive
O=C(c1ccccc1)c1ccc2cccc(OC3OC(CO)C(O)C(O)C3O)c2n1 (stereo not drawn)
inactive
CN1C(=O)CN2C(Cl)(Cl)C2(c2ccccc2F)c2cc([N+](=O)[O-])ccc21 (stereo not drawn)
inactive
Clc1ccc(Cl)c(NNc2cc(Cl)ccc2Cl)c1
inactive

Please state the recorded outcome for this molecule: CC(=O)O[C@@H]1[C@H]2[C@@H](OC(=O)c3ccccc3)[C@@H](C)C[C@]2(O)[C@H](OC(C)=O)[C@@]2(C)[C@@H]3CC(C)(C)C(=O)[C@]3(OC(C)=O)C[C@@]12C inactive

Hey, what did the test say about CCOC(=O)c1csc(NC(=O)CCN2CCOCC2)n1 ? inactive

Hey, what did the test say about Cc1nc2c(sc3nc4c(cc32)CCC4)c(=O)o1 ? inactive

Hi, sorry to bother you, what did the test record for COC(=O)C1=Cc2cn(S(=O)(=O)c3ccc(C)cc3)c3cccc(c23)C(C=C(C)C)N1C(C)=O (stereo not drawn) ? inactive

In this assay, the call recorded for COc1ccc2c(c1)OCC1=C2Oc2ccccc2C1 was what? inactive

Recorded test call requested for O=C(NCCN1C(=O)CN=C(c2ccc(Cl)cc2)c2cc(Cl)ccc21)OCc1ccccc1 inactive

Given O=c1nc(Oc2c(F)c(F)c(F)c(F)c2F)ccn1C1OC(CO)C(O)C1O (stereo not drawn) , state the outcome it received in this test. inactive

Field: outcome | Entry: COC(=O)[C@H](Cc1ccccc1)NC(=O)N(CCC#N)CCN(C(=O)N[C@@H](Cc1ccccc1)C(=O)OC)c1ccccc1 inactive

Test call, this molecule: C[C@@H]1CC2(C[C@@H](C)C3[C@@H](CC4(C)CCCC5C6=CC(O)(CC[C@]34C)OC6=CC(=O)OC5(C)C)O2)OC1=O (stereo partly drawn) inactive

Assay outcome for CC(C)COC(=O)OC(=O)c1ccc(N(C)Cc2cnc3nc(N)nc(N)c3n2)cc1 : what was it? inactive
